# measured-on: CRP (Homo sapiens, UniProt P02741)
# Sequence (P02741 19-224): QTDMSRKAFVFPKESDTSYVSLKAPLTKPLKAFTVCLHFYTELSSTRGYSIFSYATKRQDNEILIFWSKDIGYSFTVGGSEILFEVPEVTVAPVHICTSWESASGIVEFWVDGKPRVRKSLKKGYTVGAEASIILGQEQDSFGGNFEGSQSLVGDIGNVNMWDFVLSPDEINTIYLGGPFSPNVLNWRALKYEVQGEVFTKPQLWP
# test-description: MIRA immunoturbidimetric assay (inhibition of CRP recognition, COBAS MIRA autoanalyser)
# Assay type: binding
# Design: The final concentrations were 0.73 μM native pentameric CRP; from tissue
# measurement-setup: alternative stereoisomers of the formula (I) structure; read-out: IC50 of alternative stereoisomers (QA,QA: Quinuclidine, Amino Acid)
pIC50: −log10 of the molar value.
attribute-measured: pIC50

INSERT INTO assay_data (compound, result) VALUES
  ('O=C(NC(C(=O)O)C1CN2CCC1CC2)c1ccc(C(=O)NC(C(=O)O)C2CN3CCC2CC3)cc1 (single isomer, unassigned) [SR,SR]', '< 3.00'),
  ('O=C(NC(C(=O)O)C1CN2CCC1CC2)c1ccc(C(=O)NC(C(=O)O)C2CN3CCC2CC3)cc1 (single isomer, unassigned) [RS,RR]', '< 3.00'),
  ('O=C(NC(C(=O)O)C1CN2CCC1CC2)c1ccc(C(=O)NC(C(=O)O)C2CN3CCC2CC3)cc1 (single isomer, unassigned) [SS,SS]', 4.46),
  ('O=C(NC(C(=O)O)C1CN2CCC1CC2)c1ccc(C(=O)NC(C(=O)O)C2CN3CCC2CC3)cc1 (single isomer, unassigned) [RS,RS]', '< 3.00');

* * *

Each entry below carries its recorded IC50.
# measured-on: CRP (Homo sapiens, UniProt P02741)
# test-description: MIRA immunoturbidimetric assay (inhibition of CRP recognition, COBAS MIRA autoanalyser)
# Type: binding
# Parameters: The final concentrations were 0.73 μM native pentameric CRP; from tissue
# measurement-setup: 0.73 μM native pentameric CRP, TC buffer, 1 h at room temperature; read-out: IC50
# Description: The CRP immunoturbidimetric assay on the Roche COBAS MIRA Plus autoanalyser, utilises two different sized latex particles that are covalently coupled with two different monoclonal antibodies with specificity for different CRP epitopes (5). […] CRP concentrations were measured in the presence and absence of ligands by the COBAS MIRA autoanalyser. […]
attribute-measured: IC50 (µM)

INSERT INTO results (compound, number) VALUES
  ('Cc1cc(C(=O)N[C@@H](C(=O)O)[C@H]2CN3CCC2CC3)ccc1-c1ccc(C(=O)N[C@@H](C(=O)O)[C@H]2CN3CCC2CC3)cc1 [Example 6]', 0.56),
  ('O=C(N[C@@H](C(=O)O)[C@H]1CN2CCC1CC2)c1cnc(C(=O)N[C@@H](C(=O)O)[C@H]2CN3CCC2CC3)cn1 [Example 3]', 1.22),
  ('O=C(N[C@@H](C(=O)O)[C@H]1CN2CCC1CC2)c1ccc(-c2ccc(C(=O)N[C@@H](C(=O)O)[C@H]3CN4CCC3CC4)cc2)cc1 [Example 5]', 0.73),
  ('Cc1cc(C(=O)N[C@@H](C(=O)O)[C@H]2CN3CCC2CC3)ccc1C(=O)N[C@@H](C(=O)O)[C@H]1CN2CCC1CC2 [Example 9]', 0.55),
  ('O=C(N[C@@H](C(=O)O)[C@H]1CN2CCC1CC2)c1ccc(C(=O)N[C@@H](C(=O)O)[C@H]2CN3CCC2CC3)nn1 [Example 4]', 0.58),
  ('O=C(N[C@@H](C(=O)O)[C@H]1CN2CCC1CC2)c1cc(OCc2ccccc2)c(C(=O)N[C@@H](C(=O)O)[C@H]2CN3CCC2CC3)cc1OCc1ccccc1 [Example 10]', 0.67);

* * *

Each entry below carries its recorded pIC50.
# measured-on: CRP (Homo sapiens, UniProt P02741)
# test-description: MIRA immunoturbidimetric assay (inhibition of CRP recognition, COBAS MIRA autoanalyser)
# Format: binding
# Set-up: The final concentrations were 0.73 μM native pentameric CRP; from tissue
# measurement-setup: 0.73 μM native pentameric CRP, TC buffer, 1 h at room temperature; read-out: IC50
pIC50: −log10 of the molar value.
attribute-measured: pIC50

INSERT INTO assay_data (molecule, measured_on, attribute_measured, number) VALUES
  ('Cc1cc(C(=O)N[C@@H](C(=O)O)[C@H]2CN3CCC2CC3)c(C)cc1C(=O)N[C@@H](C(=O)O)[C@H]1CN2CCC1CC2', 'CRP (Homo sapiens, UniProt P02741)', 'pIC50', 6.23),
  ('O=C(N[C@@H](C(=O)O)C1CN2CCC1CC2)c1ccc(C(=O)N[C@@H](C(=O)O)C2CN3CCC2CC3)cc1 (stereo partly drawn)', 'CRP (Homo sapiens, UniProt P02741)', 'pIC50', 6.22),
  ('O=C(N[C@@H](C(=O)O)[C@H]1CN2CCC1CC2)c1ccc2cc(C(=O)N[C@@H](C(=O)O)[C@H]3CN4CCC3CC4)ccc2c1', 'CRP (Homo sapiens, UniProt P02741)', 'pIC50', 6.29),
  ('O=C(N[C@@H](C(=O)O)[C@H]1CN2CCC1CC2)c1ccc(C(=O)N[C@@H](C(=O)O)[C@H]2CN3CCC2CC3)nc1', 'CRP (Homo sapiens, UniProt P02741)', 'pIC50', 6.19),
  ('O=C(N[C@@H](C(=O)O)[C@H]1CN2CCC1CC2)c1cccc(C(=O)N[C@@H](C(=O)O)[C@H]2CN3CCC2CC3)c1', 'CRP (Homo sapiens, UniProt P02741)', 'pIC50', 5.69),
  ('C[N+](C)(C)CCOP(=O)(O)OCCCCCCCCOP(=O)(O)OCC[N+](C)(C)C', 'CRP (Homo sapiens, UniProt P02741)', 'pIC50', 5.92);
